src = PubChem BioAssay AID2152

Tested on: Hepatitis C virus core protein (core106 dimerization)
experimental details: blockers of core106 self-association – biochemical, TR-FRET, triplicate, confirmation (AID 2152)
experimental conditions: TR-FRET GST-/Flag-core106 dimerization, HTRF; at 5 µM; active compounds read high
The campaign covered roughly 2,300 compounds. About 25 (1%) were called active. What follows is part of a selection rich in actives, with near analogues and random picks from the rest.
Use 10% as the dividing line for inhibition, with the line itself on the Yes side and lower values as No.

compound: O=C1NC(=O)N(Cc2ccc(F)cc2)C(=O)/C1=C\c1ccc(N2CCCC2)cc1
cat: No

compound: COC(=O)[C@@H]1[C@@H](C(=O)OC)C2(c3ccccc3-c3ccccc32)N(c2ccc(Cl)cc2)N1C#N
cat: No

compound: Cc1ccccc1-n1c(CNc2ccccc2)nc2ccccc2c1=O
cat: No

compound: CCOc1cccc(N2C(=O)/C(=C/c3ccco3)C(=O)NC2=S)c1
cat: Yes

compound: CCN1C(=O)/C(=C/c2ccc3c(c2)CCN3CCCCl)C(=O)NC1=S
cat: Yes

compound: Cn1cccc1/C=C1/C(=O)NC(=S)N(Cc2ccc(F)cc2)C1=O
cat: Yes

compound: Cc1ccccc1N1C(=O)/C(=C/c2ccco2)C(=O)NC1=S
cat: Yes

compound: COc1ccccc1C(=O)Nc1ccc2c(c1)CC1(C(=O)N(C)C(=O)N(C)C1=O)C1CCCN21 (centres undefined)
cat: No

compound: CN1C(=O)/C(=C/c2cccn2-c2ccc3ccccc3c2)C(=O)NC1=S
cat: No
